Assay: recombinant UMI read abundance after kanamycin selection (control-corrected) (log10(CPM+1)); higher = more efficient recombination; extreme values may be limits of the assay; sequences stand for … in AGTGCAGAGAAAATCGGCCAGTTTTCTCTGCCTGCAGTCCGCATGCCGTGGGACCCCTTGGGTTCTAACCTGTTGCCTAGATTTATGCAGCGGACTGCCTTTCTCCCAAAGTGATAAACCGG…AGGTTGGTTTCACT; site = the 11-nt donor;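 further: IS621 bridge recombinase in Escherichia coli cells against a fixed T5 target plasmid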
test_readout: recombinant UMI read abundance (log10)
Write no unit; give the number alone.

stdin: For the sequence AGAAAGGCATGGACCGGTTTTCCCGGTAATCCGTATTTGAT (site AGAAAGGCTAG) , what recombinant UMI read abundance (log10) is on record?
stdout: 0

stdin: For the sequence TGCCTAACATGGACCGGTTTTCCCGGTAATCCGTATTTGAA (site TGCCTAACTTT) , what recombinant UMI read abundance (log10) is on record?
stdout: 0.0425

stdin: For the sequence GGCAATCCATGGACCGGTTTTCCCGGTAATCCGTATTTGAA (site GTCAATCCTTT) , what recombinant UMI read abundance (log10) is on record?
stdout: 0.236

stdin: For the sequence CGATGCTCATGGACCGGTTTTCCCGGTAATCCGTATTTGAA (site CGATGCTCTTT) , what recombinant UMI read abundance (log10) is on record?
stdout: 2.6

Read the next record carefully.
stdin: For the sequence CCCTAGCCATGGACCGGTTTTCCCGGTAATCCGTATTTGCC (site CCCCAGCCTGG) , what recombinant UMI read abundance (log10) is on record?
stdout: 0

---

Test: recombinant UMI read abundance after kanamycin selection (control-corrected) (log10(CPM+1)); higher = more efficient recombination; extreme values may be limits of the assay; sequences stand for … in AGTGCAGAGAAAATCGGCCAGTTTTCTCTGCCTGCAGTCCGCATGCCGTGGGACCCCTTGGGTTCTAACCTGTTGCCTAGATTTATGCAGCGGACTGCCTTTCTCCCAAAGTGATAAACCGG…AGGTTGGTTTCACT; site = the 11-nt donor
Each entry below lists one item and its recorded recombinant UMI read abundance (log10) value.
Write no unit; give the number alone.

# example entries with known answers
stdin: For the sequence GGTGTGGCATGGACCGGTTTTCCCGGTAATCCGTATTTGGT (site GGGGTGGCTAC) , what recombinant UMI read abundance (log10) is on record?
stdout: 0.145

stdin: For the sequence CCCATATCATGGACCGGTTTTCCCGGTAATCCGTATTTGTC (site CCCATATCTGG) , what recombinant UMI read abundance (log10) is on record?
stdout: 0

stdin: For the sequence GAGCTTCCATGGACCGGTTTTCCCGGTAATCCGTATTTGTC (site GAGCTTCCTGA) , what recombinant UMI read abundance (log10) is on record?
stdout: 0.576

Others:
stdin: For the sequence CGAACATCATGGACCGGTTTTCCCGGTAATCCGTATTTGCT (site CGATCATCTAG) , what recombinant UMI read abundance (log10) is on record?
stdout: 0

stdin: For the sequence CTAGCATCATGGACCGGTTTTCCCGGTAATCCGTATTTGCC (site CTAGTATCTGT) , what recombinant UMI read abundance (log10) is on record?
stdout: 0

---

Experiment: recombinant UMI read abundance after kanamycin selection (control-corrected) (log10(CPM+1)); higher = more efficient recombination; extreme values may be limits of the assay; sequences stand for … in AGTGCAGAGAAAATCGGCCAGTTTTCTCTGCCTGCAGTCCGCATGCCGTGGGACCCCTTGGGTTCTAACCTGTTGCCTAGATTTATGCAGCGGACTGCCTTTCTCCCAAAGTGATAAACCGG…AGGTTGGTTTCACT; site = the 11-nt donor
Each entry below lists one item and its recorded recombinant UMI read abundance (log10) value.
Write no unit; give the number alone.

# example entries with known answers
stdin: For the sequence AGGATGTCATGGACCGGTTTTCCCGGTAATCCGTATTTGCA (site AGGAAGACTTG) , what recombinant UMI read abundance (log10) is on record?
stdout: 0.00922

stdin: For the sequence CTTCTCTCATGGACCGGTTTTCCCGGTAATCCGTATTTGCA (site CTTCTCTCTTG) , what recombinant UMI read abundance (log10) is on record?
stdout: 2.46

stdin: For the sequence GGGGAACCATGGACCGGTTTTCCCGGTAATCCGTATTTGCA (site GGGGGACCTTG) , what recombinant UMI read abundance (log10) is on record?
stdout: 0

stdin: For the sequence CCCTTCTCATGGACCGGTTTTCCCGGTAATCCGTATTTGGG (site CCCTTATCTCC) , what recombinant UMI read abundance (log10) is on record?
stdout: 0

Others:
stdin: For the sequence TGTGCTGCATGGACCGGTTTTCCCGGTAATCCGTATTTGAA (site TGTGCTGCTTT) , what recombinant UMI read abundance (log10) is on record?
stdout: 0.011

stdin: For the sequence CAATTCCCATGGACCGGTTTTCCCGGTAATCCGTATTTGCC (site CAATTCCCTGG) , what recombinant UMI read abundance (log10) is on record?
stdout: 0

stdin: For the sequence ATTTAGGCATGGACCGGTTTTCCCGGTAATCCGTATTTGGC (site ATGTAGGCTGC) , what recombinant UMI read abundance (log10) is on record?
stdout: 0.42

stdin: For the sequence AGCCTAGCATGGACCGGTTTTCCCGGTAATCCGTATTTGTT (site AGCATAGCTAA) , what recombinant UMI read abundance (log10) is on record?
stdout: 0.00842

stdin: For the sequence GGAGCGGCATGGACCGGTTTTCCCGGTAATCCGTATTTGGT (site GGAGAGGCTAC) , what recombinant UMI read abundance (log10) is on record?
stdout: 0

stdin: For the sequence TACATAGCATGGACCGGTTTTCCCGGTAATCCGTATTTGGG (site TACATAGCTCC) , what recombinant UMI read abundance (log10) is on record?
stdout: 0.013

stdin: For the sequence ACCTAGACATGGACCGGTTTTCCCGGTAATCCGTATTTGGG (site GCCTAGACTCC) , what recombinant UMI read abundance (log10) is on record?
stdout: 0.00312

stdin: For the sequence TATCTAGCATGGACCGGTTTTCCCGGTAATCCGTATTTGAA (site TATCTAGCTTT) , what recombinant UMI read abundance (log10) is on record?
stdout: 0.502
